- experimental system: Histone-lysine N-methyltransferase EHMT2 (Homo sapiens)
- Sequence (Q96KQ7 whole entry): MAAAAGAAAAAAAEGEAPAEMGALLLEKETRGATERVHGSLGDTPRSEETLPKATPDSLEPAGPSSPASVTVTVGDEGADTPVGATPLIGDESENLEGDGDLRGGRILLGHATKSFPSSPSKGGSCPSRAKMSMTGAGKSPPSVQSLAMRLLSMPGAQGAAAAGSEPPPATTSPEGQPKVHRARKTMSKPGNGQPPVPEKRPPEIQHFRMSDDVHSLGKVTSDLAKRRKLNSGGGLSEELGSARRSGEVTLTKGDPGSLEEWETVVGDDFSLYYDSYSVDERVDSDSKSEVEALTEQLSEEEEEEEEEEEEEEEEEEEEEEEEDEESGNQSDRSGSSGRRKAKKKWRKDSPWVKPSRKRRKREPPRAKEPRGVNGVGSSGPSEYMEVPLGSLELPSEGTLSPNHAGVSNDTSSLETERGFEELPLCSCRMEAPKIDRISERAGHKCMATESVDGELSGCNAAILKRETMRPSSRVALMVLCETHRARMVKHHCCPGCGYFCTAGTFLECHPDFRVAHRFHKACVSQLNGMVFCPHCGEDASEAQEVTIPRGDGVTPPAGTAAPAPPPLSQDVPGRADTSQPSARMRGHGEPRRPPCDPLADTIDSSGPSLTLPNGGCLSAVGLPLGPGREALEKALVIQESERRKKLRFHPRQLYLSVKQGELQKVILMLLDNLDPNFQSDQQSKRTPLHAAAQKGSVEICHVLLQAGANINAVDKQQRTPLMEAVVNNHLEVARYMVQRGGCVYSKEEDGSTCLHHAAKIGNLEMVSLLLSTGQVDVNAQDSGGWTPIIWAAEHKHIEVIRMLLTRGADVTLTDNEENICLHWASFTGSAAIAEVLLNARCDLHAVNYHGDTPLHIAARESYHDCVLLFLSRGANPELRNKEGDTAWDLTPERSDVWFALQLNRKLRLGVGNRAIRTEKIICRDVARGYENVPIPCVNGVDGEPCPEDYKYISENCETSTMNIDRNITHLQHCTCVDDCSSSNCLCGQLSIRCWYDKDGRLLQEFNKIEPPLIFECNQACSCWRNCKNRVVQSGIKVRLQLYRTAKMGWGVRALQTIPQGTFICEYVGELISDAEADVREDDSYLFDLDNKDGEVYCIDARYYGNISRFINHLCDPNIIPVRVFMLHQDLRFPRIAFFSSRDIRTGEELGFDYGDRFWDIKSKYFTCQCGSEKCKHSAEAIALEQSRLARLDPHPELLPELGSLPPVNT
pIC50: −log10 of the molar value.
endpoint name: pIC50

[[record]]
input_smiles = "C=CC(=O)NCc1cc(C(=O)NCc2c(SC)cc(C)[nH]c2=O)c(C)c(N(CC)C2CCOCC2)c1"
result = "< 5.00"


----------
Each entry below carries its reported IC50.
- Tested on: SU-DHL-2
- test name: Antiproliferative activity against human SUDHL2 cells expressing EZH2 mutant assessed as inhibition of cell proliferation incubated for 6 days by CCK8 assay
- Format: functional, cell-based
- condition set: SU-DHL-2, 144 h
endpoint name: IC50

[[record]]
input_smiles = "CCC(=O)NCc1cc(C(=O)NCc2c(SC)cc(C)[nH]c2=O)c(C)c(N(CC)C2CCOCC2)c1"
result = "> 3000 nM"

[[record]]
input_smiles = "C=CC(=O)NCc1cc(C(=O)NCc2c(SC)cc(C)[nH]c2=O)c(C)c(N(CC)C2CCOCC2)c1"
result = "> 3000 nM"

[[record]]
input_smiles = "CCN(c1cc(-c2ccc(CN3CCOCC3)cc2)cc(C(=O)NCc2c(C)cc(C)[nH]c2=O)c1C)C1CCOCC1"
result = "> 3000 nM"


----------
- Test system: Pfeiffer
- test name: Antiproliferative activity against human Pfeiffer cells expressing EZH2 […] mutant assessed as inhibition of cell proliferation incubated for 6 days by CCK8 assay
- Assay type: functional, cell-based
- condition set: 144 h
pIC50: −log10 of the molar value.
endpoint name: pIC50

[[record]]
input_smiles = "CCC(=O)N(C)c1cc(C(=O)NCc2c(C)cc(C)[nH]c2=O)c(C)c(N(CC)C2CCOCC2)c1"
recorded_number = 5.60

[[record]]
input_smiles = "C=CC(=O)NCc1cc(C(=O)NCc2c(CCC)cc(C)[nH]c2=O)c(C)c(N(CC)C2CCOCC2)c1"
recorded_number = 5.87

[[record]]
input_smiles = "CCN(c1cc(-c2ccc(CN3CCOCC3)cc2)cc(C(=O)NCc2c(C)cc(C)[nH]c2=O)c1C)C1CCOCC1"
recorded_number = 7.47


----------
- Tested on: Pfeiffer
- test name: Antiproliferative activity against human Pfeiffer cells expressing EZH2 […] mutant assessed as inhibition of cell proliferation incubated for 6 days by CCK8 assay
- Type: functional, cell-based
- condition set: 144 h
pIC50: −log10 of the molar value.
// reported pIC50 per item
endpoint name: pIC50

[[record]]
input_smiles = "C=CC(=O)N(C)c1cc(C(=O)NCc2c(C)cc(C)[nH]c2=O)c(C)c(N(CC)C2CCOCC2)c1"
relation_sign = "="
recorded_number = 6.71

[[record]]
input_smiles = "C=CC(=O)Nc1cc(C(=O)NCc2c(C)cc(C)[nH]c2=O)c(C)c(N(CC)C2CCOCC2)c1"
relation_sign = "="
recorded_number = 6.01

[[record]]
input_smiles = "CCC(=O)NCc1cc(C(=O)NCc2c(C)cc(C)[nH]c2=O)c(C)c(N(CC)C2CCOCC2)c1"
relation_sign = "<"
recorded_number = 5.52

[[record]]
input_smiles = "C=CC(=O)NCc1cc(C(=O)NCc2c(OC)cc(C)[nH]c2=O)c(C)c(N(CC)C2CCOCC2)c1"
relation_sign = "="
recorded_number = 6.50

[[record]]
input_smiles = "C=CC(=O)NCc1cc(C(=O)NCc2c(SC)cc(C)[nH]c2=O)c(C)c(N(CC)C2CCOCC2)c1"
relation_sign = "="
recorded_number = 7.66

[[record]]
input_smiles = "CCC(=O)NCc1cc(C(=O)NCc2c(SC)cc(C)[nH]c2=O)c(C)c(N(CC)C2CCOCC2)c1"
relation_sign = "="
recorded_number = 6.83

[[record]]
input_smiles = "C=CC(=O)NCc1cc(C(=O)NCc2c(C)cc(C)[nH]c2=O)c(C)c(N(CC)C2CCOCC2)c1"
relation_sign = "="
recorded_number = 6.71

[[record]]
input_smiles = "CCC(=O)Nc1cc(C(=O)NCc2c(C)cc(C)[nH]c2=O)c(C)c(N(CC)C2CCOCC2)c1"
relation_sign = "="
recorded_number = 5.71

